Listing: pest or weed control at 500 ppm of selected molecules
System: cucumber downy mildew (Pseudoperonospore cubensis)
Test: inhibitory test against cucumber downy mildew
Type: in vivo
Conditions: Cucumis sativus; Table 6; 500 ppm, four sprays; outside of leaves; read-out: Preventive value (outside)
reported endpoint: pest or weed control at 500 ppm (%)

                                   molecule                           subject_of_test  measured
0  CCCCCCCCCCCCCCCCCC(=O)NC(C)C(=O)O (stereo not shown)  cucumber downy mildew (Pseudoperonospore cubensis)        58
1                  CCCCCCCCCCCC(=O)NCC(=O)O  cucumber downy mildew (Pseudoperonospore cubensis)        67
2                CCCCCCCCCCCCCC(=O)NCC(=O)O  cucumber downy mildew (Pseudoperonospore cubensis)        42
3    CCCCCCCCCC(=O)N[C@@H](Cc1ccccc1)C(=O)O  cucumber downy mildew (Pseudoperonospore cubensis)        67
4  CCCCCCCCCCCC(=O)NC(Cc1ccc([N+](=O)[O-])cc1)C(=O)O (stereo not shown)  cucumber downy mildew (Pseudoperonospore cubensis)        50
5  CCCCCCCCCCCC(=O)NC(Cc1ccccc1)C(=O)O (stereo not shown)  cucumber downy mildew (Pseudoperonospore cubensis)        75
6     CCCCCCCCCCCC(=O)N[C@@H](CC(C)C)C(=O)O  cucumber downy mildew (Pseudoperonospore cubensis)        42

###

Listing: Average number of disease lesions per leaf of selected compounds
Test system: Piricularia oryzae (rice blast)
Settings: Table 2; 500 ppm; untreated 34.2
reported endpoint: Average number of disease lesions per leaf

In [3]: df
Out[3]:
                                  structure  measured
0  CCCCCCCCCCCCCC(=O)N[C@@H](CCCNC(=N)N)C(=O)OCC       8.5
1  CCCCCCCCCCCCCCCCCC(=O)N[C@@H](CCCNC(=N)N)C(=O)OCC       7.3
2  CCCCCCCCCCCC(=O)N[C@@H](CCCNC(N)=O)C(=O)OC       6.2
3  CCCCCCCCCCCC(=O)N[C@@H](CCCNC(=N)N)C(=O)OCC       6.8
4      CCCCCCCCCCCC(=O)N[C@@H](CCCN)C(=O)OC       7.3
5   CCCCCCCCCCCCCC(=O)N[C@@H](CCCCN)C(=O)OC       6.2
6  CCCCCCCCCCCCCC(=O)N[C@@H](Cc1c[nH]cn1)C(=O)OC       5.1

###

System: Piricularia oryzae (rice blast)
Settings: Table 1; 500 ppm, 50 ml per pot; two days after infection; untreated 33.0
reported endpoint: Average number of disease lesions per leaf

                                   compound                  subject_of_test  measured
0  CCCCCCCCCCCCCCCCCC(=O)NC(C)C(=O)O (stereo not drawn) [compound 7]  Piricularia oryzae (rice blast)       5.9
1  CCCCCCCCCCCC(=O)N(C)CC(=O)O [compound 15]  Piricularia oryzae (rice blast)       7.4
2  CCCCCCCCCCCC(=O)N[C@H](C(=O)O)[C@@H](C)O [compound 11]  Piricularia oryzae (rice blast)       7.6
3  CCCCCCCCCCCCCCCCCC(=O)NCC(=O)O [compound 6]  Piricularia oryzae (rice blast)       6.6
4  C=CCCCCCCCCC(=O)N[C@@H](CC(C)C)C(=O)O [compound 14]  Piricularia oryzae (rice blast)       5.6
5  CCCCCCCCCC(=O)NC(CCSC)C(=O)O (stereo not drawn) [compound 16]  Piricularia oryzae (rice blast)      11.0
6     CCCCCCCCCCCC(=O)NCC(=O)O [compound 1]  Piricularia oryzae (rice blast)       1.7
7   CCCCCCCCCCCCCC(=O)NCC(=O)O [compound 9]  Piricularia oryzae (rice blast)       9.9
8  CCCCCCCCCCCC(=O)N[C@H](C(=O)O)C(C)C [compound 2]  Piricularia oryzae (rice blast)       6.6

###

Listing: Number of leaves infected (inside) of selected compounds
Test system: cucumber downy mildew (Pseudoperonospore cubensis)
Assay: inhibitory test against cucumber downy mildew
Format: in vivo
Conditions: Table 6; 500 ppm, four sprays; 23rd of May; untreated 22
reported endpoint: Number of leaves infected (inside)

In [3]: df
Out[3]:
                                   compound                           subject_of_test                   reported_endpoint  measured
0  CCCCCCCCCCCCCCCCCC(=O)NC(C)C(=O)O (stereo not drawn)  cucumber downy mildew (Pseudoperonospore cubensis)  Number of leaves infected (inside)         8
1     CCCCCCCCCCCC(=O)N[C@@H](CC(C)C)C(=O)O  cucumber downy mildew (Pseudoperonospore cubensis)  Number of leaves infected (inside)         9
2  CCCCCCCCCCCC(=O)NC(Cc1ccc([N+](=O)[O-])cc1)C(=O)O (stereo not drawn)  cucumber downy mildew (Pseudoperonospore cubensis)  Number of leaves infected (inside)         9

###

Tested on: cucumber downy mildew (Pseudoperonospore cubensis)
Assay: inhibitory test against cucumber downy mildew
Type: in vivo
Conditions: Table 7; 500 ppm, four sprays; 23rd of May; untreated 15
Listing: Number of leaves infected (inside) of selected molecules
reported endpoint: Number of leaves infected (inside)

>>> df
                                   molecule                   reported_endpoint  measured
0  CCCCCCCCCCCCCC(=O)N[C@@H](CCCCN)C(=O)OC [compound 23]  Number of leaves infected (inside)         8
1  CCCCCCCCCCCC(=O)N[C@@H](CCCN)C(=O)OC [compound 24]  Number of leaves infected (inside)         8
2  CCCCCCCCCCCC(=O)N[C@@H](CCCNC(=N)N)C(=O)OCC [compound 27]  Number of leaves infected (inside)         9
3  CCCCCCCCCCCCCC(=O)N[C@@H](CCCNC(=N)N)C(=O)OCC [compound 21]  Number of leaves infected (inside)         8

###

Tested on: citrus melanose
Assay: inhibitory test against Citrus melanose
Type: in vivo
Conditions: Table 4; 500 ppm; about 2-3 weeks after inoculation; untreated 53
Extent infection below 20% gives condition not met; Extent infection at or above it gives condition met.

In [3]: df
Out[3]:
                                   compound     category_label
0    CCCCCCCCCCCC(=O)N[C@@H](CC(=O)O)C(=O)O  condition not met
1                  CCCCCCCCCCCC(=O)NCC(=O)O  condition not met
2  CCCCCCCCCCCCCCCCCC(=O)N[C@@H](Cc1ccccc1)C(=O)O      condition met
3     C=CCCCCCCCCC(=O)N[C@@H](CC(C)C)C(=O)O  condition not met
4            CCCCCCCCCCCCCCCCCC(=O)NCC(=O)O  condition not met
5  CCCCCCCCCCCC(=O)NC(Cc1ccc([N+](=O)[O-])cc1)C(=O)O (centres unmarked)      condition met
6  CCCCCCCCCCCC(=O)NC(Cc1ccccc1)C(=O)O (centres unmarked)      condition met
7  CCCCCCCCCC(=O)NC(CCSC)C(=O)O (centres unmarked)      condition met

###

System: cucumber downy mildew (Pseudoperonospore cubensis)
Assay: inhibitory test against cucumber downy mildew
Format: in vivo
Conditions: Table 6; 500 ppm, four sprays; 23rd of May; untreated 22
Listing: Number of leaves infected (inside) of selected molecules
reported endpoint: Number of leaves infected (inside)

>>> df
                                   molecule                           subject_of_test                   reported_endpoint  measured
0  CCCCCCCCCCCCCCCCCC(=O)N[C@@H](Cc1ccccc1)C(=O)O [compound 4]  cucumber downy mildew (Pseudoperonospore cubensis)  Number of leaves infected (inside)        10
1   CCCCCCCCCCCCCC(=O)NCC(=O)O [compound 9]  cucumber downy mildew (Pseudoperonospore cubensis)  Number of leaves infected (inside)         9
2  CCCCCCCCCCCC(=O)NC(Cc1ccccc1)C(=O)O (centres unmarked) [compound 8]  cucumber downy mildew (Pseudoperonospore cubensis)  Number of leaves infected (inside)         7
3     CCCCCCCCCCCC(=O)NCC(=O)O [compound 1]  cucumber downy mildew (Pseudoperonospore cubensis)  Number of leaves infected (inside)         6
4  CCCCCCCCCC(=O)N[C@@H](Cc1ccccc1)C(=O)O [compound 12]  cucumber downy mildew (Pseudoperonospore cubensis)  Number of leaves infected (inside)         6

###

Listing: Number of leaves infected (outside) of selected compounds
System: cucumber downy mildew (Pseudoperonospore cubensis)
Assay: inhibitory test against cucumber downy mildew
Format: in vivo
Settings: Table 7; 500 ppm, four sprays; 23rd of May; untreated 13
reported endpoint: Number of leaves infected (outside)

>>> df
                                  structure  measured
0      CCCCCCCCCCCC(=O)N[C@@H](CCCN)C(=O)OC         6
1  CCCCCCCCCCCCCC(=O)N[C@@H](CCCNC(=N)N)C(=O)OCC         5
2   CCCCCCCCCCCCCC(=O)N[C@@H](CCCCN)C(=O)OC         7
3  CCCCCCCCCCCC(=O)N[C@@H](CCCNC(=N)N)C(=O)OCC         6
